Some compounds, each annotated with its measured melting point.

compound=Fc1cccc2cc(I)cnc12 measured_result="77 to 79 °C"

Could you now consider this next compound?
Looking up CN(C)Cc1ccnc(N)c1 , I see its melting point listed as 58 to 60 °C

###

Some compounds, each annotated with its measured melting point.

In the examples that follow, each entry is paired with its recorded melting point.
compound=CCOC(=O)c1sc(N)c(C(=O)c2ccccc2)c1C quantity_kind="melting point" measured_result="119 to 121 °C"
compound=O=C(O)c1cc(-c2ccccc2)cc(Cl)c1O quantity_kind="melting point" measured_result="202 to 204 °C"
compound=O=C(O)c1cc(-c2cccc(Br)c2)nc2ccccc12 quantity_kind="melting point" measured_result="215 to 217 °C"
compound=CC(C)c1ccc(C(=O)O)c(O)c1 quantity_kind="melting point" measured_result="93 to 95 °C"
compound=Nc1cc(NC(=O)c2ccccc2I)ccc1F quantity_kind="melting point" measured_result="202 to 204 °C"

Looking up COc1cc(F)c(C(=O)O)cc1OC , I see its melting point listed as 192 to 194 °C

The reported numbers originate from a melting point compilation (Tetko et al.).
